target: memapsin 2 (Cricetulus griseus, UniProt G3IAK4); construct: endogenous in cells; host or cells: Chinese hamster ovary cells over-expressing human APP695 (London + Swedish); experiment: Cellular Aβ IC50 determination (Aβ40 sandwich ELISA); type: cell-based; conditions: Chinese hamster ovary cells over-expressing human APP695 with London and Swedish mutations, 24 h
Sequence (G3IAK4 22-501): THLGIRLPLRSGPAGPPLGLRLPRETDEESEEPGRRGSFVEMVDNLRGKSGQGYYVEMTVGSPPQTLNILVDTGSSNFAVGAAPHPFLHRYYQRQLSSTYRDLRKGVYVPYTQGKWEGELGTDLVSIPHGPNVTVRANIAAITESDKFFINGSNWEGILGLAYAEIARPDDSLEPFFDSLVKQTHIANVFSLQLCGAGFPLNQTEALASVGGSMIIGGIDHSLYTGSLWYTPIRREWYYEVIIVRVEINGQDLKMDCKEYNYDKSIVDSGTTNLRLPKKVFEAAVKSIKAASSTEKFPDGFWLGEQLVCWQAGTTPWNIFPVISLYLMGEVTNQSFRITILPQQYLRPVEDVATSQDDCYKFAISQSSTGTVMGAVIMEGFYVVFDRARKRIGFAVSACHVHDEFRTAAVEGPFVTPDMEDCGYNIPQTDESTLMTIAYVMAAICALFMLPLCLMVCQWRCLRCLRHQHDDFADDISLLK
PROPERTY_LABEL: IC50

Prompt line: Give the measured IC50 of COC(Cn1nc(C)cc1C)C(=O)NC(CNC(=O)OC(C)(C)C)C(=O)NC(CC(C)C)C(O)CC(C)C(=O)NC(C(=O)NCC(C)C)C(C)C (stereo not drawn) .
Response line: > 100 µM

Prompt line: Give the measured IC50 of CCC(Cn1nc(C)cc1C)C(=O)NC(CNC(=O)OCCF)C(=O)NC(CC(C)C)C(O)CC(C)C(=O)NC(C(=O)NCC(C)C)C(C)C (stereo not drawn) .
Response line: 6 to 100 µM

Prompt line: Give the measured IC50 of CC(=O)NCC(NC(=O)C(C)Cc1nc(C)cs1)C(=O)NC(CC(C)C)C(O)CC(C)C(=O)NC(C(=O)NCC(C)C)C(C)C (stereo not drawn) .
Response line: 6 to 100 µM

Prompt line: Give the measured IC50 of CCC(Cn1nc(C)cc1C)C(=O)NC(CNC(=O)OC(C)(C)C)C(=O)NC(CC(C)C)C(O)CC(C)C(=O)NC(C(=O)NCC(C)C)C(C)C (stereo not drawn) .
Response line: < 6 µM

Prompt line: Give the measured IC50 of CCC(Cc1nc(C)cs1)C(=O)NC(CN(C)OC)C(=O)NC(CC(C)C)C(O)CC(C)C(=O)NC(C(=O)NCC(C)C)C(C)C (stereo not drawn) .
Response line: > 100 µM

Prompt line: Give the measured IC50 of Cc1csc(CC(C)C(=O)NC(CNC(=O)OC(C)(C)C)C(=O)NC(Cc2ccccc2)C(O)CC(C)C(=O)NC(C(=O)NCC(C)C)C(C)C)n1 (stereo not drawn) .
Response line: 6 to 100 µM

Prompt line: Give the measured IC50 of Cc1csc(CC(C)C(=O)NC(CNC(=O)OC2CCOC2)C(=O)NC(CC(C)C)C(O)CC(C)C(=O)NC(C(=O)NCC(C)C)C(C)C)n1 (stereo not drawn) .
Response line: < 6 µM

Prompt line: Give the measured IC50 of "Cc1csc(COC(=O)N[C@@H](CNS(C)(=O)=O)C(=O)N[C@@H](CC(C)C)[C@@H](O)C[C@@H](C)C(=O)N[C@H](C(=O)NCC(C)C)C(C)C)n1" .
Response line: > 100 µM

----------
biological target: memapsin 2 (Cricetulus griseus, UniProt G3IAK4); construct: endogenous in cells; experiment: Cellular Aβ IC50 determination (Aβ40 sandwich ELISA); conditions: Chinese hamster ovary cells over-expressing human APP695 with London and Swedish mutations, 24 h
pIC50: −log10 of the molar value.
Listed here: items and their measured pIC50.

Consider the following illustrative entries.
[
  {
    "MOLECULE": "CCC(CC(O)C(CC(C)C)NC(=O)C(CNC(=O)OC(C)(C)C)NC(=O)C(C)Cc1nc(C)cs1)C(=O)NC(C(=O)NCC(C)C)C(C)C (stereo not shown)",
    "PROPERTY_LABEL": "pIC50",
    "ENDPOINT_VALUE": "> 5.22"
  },
  {
    "MOLECULE": "Cc1csc(CC(C)C(=O)NC(CN)C(=O)NC(CC(C)C)C(O)CC(C)C(=O)NC(C(=O)NCC(C)C)C(C)C)n1 (stereo not shown)",
    "PROPERTY_LABEL": "pIC50",
    "ENDPOINT_VALUE": "4.00 to 5.22"
  }
]

Prompt line: Give the measured pIC50 of CCC(Cn1nc(C)cc1C)C(=O)NC(CNC(=O)OC(C)(C)C)C(=O)NC(CC(C)C)C(O)CC(C)C(=O)NC(C(=O)NCc1nc(C)cs1)C(C)C (stereo not shown) .
Response line: > 5.22

Prompt line: Give the measured pIC50 of Cc1nc(CC(C)C(=O)NC(CNC(=O)OC(C)(C)C)C(=O)NC(CC(C)C)C(O)CC(C)C(=O)NC(C(=O)NCC(C)C)C(C)C)c(C)o1 (stereo not shown) .
Response line: > 5.22
